# Test Method Notes: nonspecific toxicity by intraperitoneal injection
# Measurement Parameters: C57/BL, mouse, in vivo, ip
# Procedure: (All studies described in this section were carried out by intraperitoneal (IP) injection into C57/BL mice.)
LD50 for assorted compounds

Compound | LD50
O=C(O)CCCCC(CCSC(=O)c1ccccc1)SC(=O)c1ccccc1 (centres unmarked) [bis-benzoyl lipoate, 6,8-bisbenzoylmercaptooctanoic acid] | ~1000 mg/kg

# evaluate next
Prompt line: For CC(=O)SCCC(CCCCC(=O)O)SC(C)=O (centres unmarked) [bis-acetyl lipoate, 6,8-bisacetylmercaptooctanoic acid] , what is its reported LD50?
Response line: ~500 mg/kg
